# assayConditions: fish
Reported log10 BCF by item:
observable: log10 BCF

{"compound": "c1ccc2c(c1)ccc1nc3c(ccc4ccccc43)cc12", "recordedValue": 2.03}
{"compound": "Brc1cc(Oc2c(Br)c(Br)c(Br)c(Br)c2Br)c(Br)c(Br)c1Br", "recordedValue": 5.44}
{"compound": "COc1ccc([N+](=O)[O-])cc1", "recordedValue": 1.08}
{"compound": "CC(C)OP(=O)(OC(C)C)SCc1ccccc1", "recordedValue": 0.94}
{"compound": "Clc1ccc2c(oc3c(Cl)c(Cl)c(Cl)c(Cl)c32)c1Cl", "recordedValue": 2.78}
{"compound": "O=P(OCC(Br)CBr)(OCC(Br)CBr)OCC(Br)CBr (stereo unspecified)", "recordedValue": 0.51}
{"compound": "FC(F)(F)c1ccc(Cl)cc1Cl", "recordedValue": 3.37}
{"compound": "Cc1ccccc1", "recordedValue": 0.92}
{"compound": "CCOP(=S)(NC(C)C)Oc1ccccc1C(=O)OC(C)C (stereo unspecified)", "recordedValue": 2.12}
{"compound": "O=S(=O)(O)c1ccc(O)c2ccccc12", "recordedValue": 1.11}
{"compound": "Oc1ccccc1Cl", "recordedValue": 1.35}

---

{"compoundStructureString": "O=C1OC(=Cc2ccccc2)c2ccccc21", "melting point (°C)": 100}
{"compoundStructureString": "O=C(OC(=O)C(c1ccccc1)c1ccccc1)C(c1ccccc1)c1ccccc1", "melting point (°C)": 98}
{"compoundStructureString": "O=C(O)c1cc(F)c(F)c(F)c1", "melting point (°C)": 98}
{"compoundStructureString": "CCOC(=O)C=Cc1ccccc1", "melting point (°C)": 7}

---

Reported log10 vapour pressure (mmHg) by item:

{"compound": "CCCCCCCCOC(=O)CCCCC(=O)OCCCCCCCC", "log10 vapour pressure (mmHg)": -6.07}
{"compound": "C[SiH](Cl)Cl", "log10 vapour pressure (mmHg)": 2.63}
{"compound": "C1CCNCC1", "log10 vapour pressure (mmHg)": 1.51}
{"compound": "C1CCC2CCCCC2C1 (stereo unspecified)", "log10 vapour pressure (mmHg)": 0.114}
{"compound": "CCOC(=O)/C=C\\C(=O)OCC", "log10 vapour pressure (mmHg)": -0.979}
{"compound": "Oc1ccccc1", "log10 vapour pressure (mmHg)": -0.456}
{"compound": "CCO[Si](OCC)(OCC)OCC", "log10 vapour pressure (mmHg)": 0.275}
{"compound": "C=CCO", "log10 vapour pressure (mmHg)": 1.42}
{"compound": "C[Si](C)(C)O[Si](C)(O[Si](C)(C)C)O[Si](C)(C)C", "log10 vapour pressure (mmHg)": -1.4}
{"compound": "CCCC(=O)O", "log10 vapour pressure (mmHg)": 0.217}
{"compound": "CCc1ccc(O)cc1", "log10 vapour pressure (mmHg)": -1.43}
{"compound": "Cc1cccc(C)n1", "log10 vapour pressure (mmHg)": 0.752}
{"compound": "CNC(=O)O/N=C/C(C)(C)S(C)(=O)=O", "log10 vapour pressure (mmHg)": -4.05}
{"compound": "CCCCC=O", "log10 vapour pressure (mmHg)": 1.42}
{"compound": "CC(C)C(O)(c1ccc(OC(F)(F)F)cc1)c1cncnc1 (stereo unspecified)", "log10 vapour pressure (mmHg)": -6.44}
{"compound": "C=C(C)C(N)=O", "log10 vapour pressure (mmHg)": -1.07}

---

Labelling field: enter class 1 if recorded melting point is less than 50 °C. Enter class 0 if it equals or exceeds that cut-off.

{"molecule": "Cc1cc(N)nc(C)n1", "assignedCategory": "class 0"}
{"molecule": "C=CBr", "assignedCategory": "class 1"}
{"molecule": "COC(=O)N(C(=O)N1COC2(C(=O)OC)Cc3cc(Cl)ccc3C2=N1)c1ccc(OC(F)(F)F)cc1 (stereo not given)", "assignedCategory": "class 0"}
{"molecule": "CC(C)(C)c1ccc2cc3ccccc3cc2c1", "assignedCategory": "class 0"}
{"molecule": "CC(/C=C\\c1ccccc1)c1ccccc1 (stereo not given)", "assignedCategory": "class 1"}
{"molecule": "CCC1=CCCC1", "assignedCategory": "class 1"}
{"molecule": "NCCOP(=O)(O)O", "assignedCategory": "class 0"}
{"molecule": "CC(C)N(C(=O)COc1nnc(C(F)(F)F)s1)c1ccc(F)cc1", "assignedCategory": "class 0"}
{"molecule": "O=[N+]([O-])c1c(O)ccc2ccccc12", "assignedCategory": "class 0"}
{"molecule": "C=C(C)c1ccc(C)c2ccc(C=O)c-2c1", "assignedCategory": "class 0"}
{"molecule": "C[C@H]1O[C@@H](O[C@H]2[C@@H](O)C[C@H](O[C@H]3[C@@H](O)C[C@H](O[C@H]4CC[C@@]5(C)[C@H](CC[C@@H]6[C@@H]5CC[C@]5(C)[C@@H](C7=CC(=O)OC7)CC[C@]65O)C4)O[C@@H]3C)O[C@@H]2C)C[C@H](O)[C@@H]1O", "assignedCategory": "class 0"}
{"molecule": "CCC(C)(C)CC(C)C", "assignedCategory": "class 1"}
{"molecule": "CN(C)C=O", "assignedCategory": "class 1"}
{"molecule": "ClCCCBr", "assignedCategory": "class 1"}
{"molecule": "C=C[N+](=O)[O-]", "assignedCategory": "class 1"}

---

{"compoundStructureString": "O=C(O)C(F)(F)C(F)(F)C(F)(F)C(F)(F)C(F)(F)C(F)(F)C(F)(F)C(F)(F)C(F)(F)C(F)(F)C(F)(F)F", "boiling point, °C": 249}
{"compoundStructureString": "CCCC/C=C/CO", "boiling point, °C": 178}
{"compoundStructureString": "O=C(Cl)c1ccccc1", "boiling point, °C": 197}
{"compoundStructureString": "C=CC(=O)OCCO", "boiling point, °C": 191}
{"compoundStructureString": "CC(C)C(=O)C(=O)C(C)C", "boiling point, °C": 144}
{"compoundStructureString": "CCCNC(C)C", "boiling point, °C": 96.9}
{"compoundStructureString": "C=C(Br)CC", "boiling point, °C": 88}
{"compoundStructureString": "CCCCS", "boiling point, °C": 98.5}
{"compoundStructureString": "CCCc1cccs1", "boiling point, °C": 158}
{"compoundStructureString": "ClCCl", "boiling point, °C": 40}
{"compoundStructureString": "CNC(=O)NC", "boiling point, °C": 269}
{"compoundStructureString": "Cc1ccc2nc(-c3ccc(N)cc3)sc2c1", "boiling point, °C": 434}
{"compoundStructureString": "OCCCc1cccnc1", "boiling point, °C": 284}
{"compoundStructureString": "CC(C)CCC(=O)O", "boiling point, °C": 200}
{"compoundStructureString": "C[Si](Cl)(Cl)CCl", "boiling point, °C": 122}
{"compoundStructureString": "ClC(Cl)Br", "boiling point, °C": 90}
{"compoundStructureString": "CS(C)=O", "boiling point, °C": 189}
{"compoundStructureString": "NCCCO", "boiling point, °C": 188}
{"compoundStructureString": "NC[C@H]1CCCO1", "boiling point, °C": 153}
{"compoundStructureString": "CN(C)c1ccc(Cl)cc1", "boiling point, °C": 231}

---

observable: boiling point (°C)

{"compound": "CC(C)COc1ccccc1", "recordedValue": 198}
{"compound": "ClC(Cl)C(Cl)(Cl)C(Cl)(Cl)Cl", "recordedValue": 248}
{"compound": "Oc1cc(O)c(Cl)cc1Cl", "recordedValue": 254}
{"compound": "Clc1cccc(Nc2ccccc2)c1", "recordedValue": 338}
{"compound": "CC(=O)CCCO", "recordedValue": 209}
{"compound": "O=Cc1ccc(Br)o1", "recordedValue": 201}
{"compound": "OCCOc1ccccc1", "recordedValue": 245}
{"compound": "C=C[Si](C)(C)O[Si](C)(C)C=C", "recordedValue": 39}
{"compound": "C#C[C@H](O)CC", "recordedValue": 125}
{"compound": "c1ccc(N2CCCCC2)cc1", "recordedValue": 258}
{"compound": "FC(F)(F)C(F)(F)Br", "recordedValue": -21}
{"compound": "N#Cc1ccccc1CCl", "recordedValue": 252}
{"compound": "CCCCCCCCCCBr", "recordedValue": 241}
{"compound": "CCC(=O)OC1CCCCC1", "recordedValue": 193}
{"compound": "C[C@H](Oc1ccccc1)C(=O)O", "recordedValue": 266}
{"compound": "CN[C@@H](C)[C@H](O)c1ccccc1", "recordedValue": 255}
{"compound": "CC(=O)c1cccc(O)c1", "recordedValue": 296}
{"compound": "CCOC(=O)C(C)(C)C", "recordedValue": 118}
{"compound": "O=C1CCCCO1", "recordedValue": 219}
{"compound": "CN1CSCSC1", "recordedValue": 185}
{"compound": "OCc1ccc(O)cc1", "recordedValue": 252}
{"compound": "CCSC(C)C", "recordedValue": 108}
{"compound": "Cc1cccc(C(C)C)c1O", "recordedValue": 226}
{"compound": "CC(O)C(C)O (racemic)", "recordedValue": 182}
{"compound": "CC=C[C@H](O)CCCC", "recordedValue": 175}
{"compound": "O=[N+]([O-])c1ccccc1C(F)(F)F", "recordedValue": 217}
{"compound": "O=S(=O)(O)C(F)(F)C(F)(F)C(F)(F)C(F)(F)C(F)(F)F", "recordedValue": 225}
{"compound": "CC(C)=CCCc1ccoc1", "recordedValue": 186}
{"compound": "COS(C)(=O)=O", "recordedValue": 203}
{"compound": "N#CCCN", "recordedValue": 185}
{"compound": "C=C[Si](C)(Cl)Cl", "recordedValue": 92.5}
{"compound": "O=[N+]([O-])c1c(Cl)c(Cl)c(Cl)c(Cl)c1Cl", "recordedValue": 328}
{"compound": "BrCCCCCCBr", "recordedValue": 246}
{"compound": "CC/C=C\\CO", "recordedValue": 138}
{"compound": "CCCCCCC1CCCC1", "recordedValue": 203}
{"compound": "CCCC(C(=O)OCC)C(=O)OCC", "recordedValue": 221}
{"compound": "CCCC(=O)CCC", "recordedValue": 144}
{"compound": "CC(C)CCCCCO", "recordedValue": 188}
{"compound": "CC1C(=O)CC2CC1C2(C)C (stereo unspecified)", "recordedValue": 212}
{"compound": "FCCCCCl", "recordedValue": 115}
{"compound": "C=CC(=O)OCCOCC", "recordedValue": 174}
{"compound": "CC(CCO)CCCC(C)(C)O (stereo unspecified)", "recordedValue": 265}
{"compound": "CCNc1ccccc1C", "recordedValue": 216}
{"compound": "CCOC(=O)CCCCl", "recordedValue": 184}
{"compound": "Cc1cc(C)c(Br)cc1C", "recordedValue": 234}
{"compound": "CC(C)=CC(=O)O", "recordedValue": 197}
{"compound": "CC1CNCC(C)C1 (stereo unspecified)", "recordedValue": 144}
{"compound": "CCCCCCCC=CC=O", "recordedValue": 230}
{"compound": "NCCCCN", "recordedValue": 158}
{"compound": "Cc1cc(C)c(N)cc1C", "recordedValue": 234}
{"compound": "Cc1cc(Cl)cc(Cl)c1", "recordedValue": 202}
{"compound": "Brc1cn[nH]c1", "recordedValue": 255}
{"compound": "ClC(Br)Br", "recordedValue": 120}
{"compound": "BrC1CCCCC1", "recordedValue": 166}
{"compound": "CCCCCOC(C)=O", "recordedValue": 149}
{"compound": "CCCCCCCCCCCCc1ccccc1", "recordedValue": 328}
{"compound": "CCC(N)=O", "recordedValue": 213}
{"compound": "CCOC(=O)CC(C)=O", "recordedValue": 181}
{"compound": "C=C(C)C(C)CC (stereo unspecified)", "recordedValue": 84.3}
{"compound": "Cc1ccc(-c2ccccc2)cc1", "recordedValue": 268}
{"compound": "S=C=NC1CCCCC1", "recordedValue": 220}
